Test name: Plasma clearance in Sprague-Dawley rat plasma at 2 x 50 mg/kg, iv
Assay type: ADME, organism-based
Design: dose 50 mg/kg, route intravenous
Recorded metric: clearance (mL/min/kg)
Write it as a number; the unit mL/min/kg goes unstated.

Exam item: Consider the compound shown here: CCc1cc(O)c(Oc2ccc(C(N)=O)cc2F)cc1F What is its recorded clearance?
Marked response: 107

* * *

Test name: Toxicity in iv dosed mouse
Assay type: organism-based
Condition notes: in vivo
Recorded metric: MTD

Exam item: Consider the compound shown here: CCc1cc(O)c(Oc2ccc(C(N)=O)cc2F)cc1F What is its recorded MTD?
Marked response: > 200 mg/kg

* * *

Target sequence: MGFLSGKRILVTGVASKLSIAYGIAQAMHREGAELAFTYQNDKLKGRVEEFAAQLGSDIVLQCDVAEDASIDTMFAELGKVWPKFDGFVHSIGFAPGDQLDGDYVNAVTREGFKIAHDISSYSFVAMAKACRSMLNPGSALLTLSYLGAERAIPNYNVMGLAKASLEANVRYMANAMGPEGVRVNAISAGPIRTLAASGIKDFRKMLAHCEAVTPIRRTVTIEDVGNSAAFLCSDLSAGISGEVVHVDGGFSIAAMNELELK
Recorded metric: pIC50
Scale for pIC50: -log10 of concentration given in mol/L; no unit attached.

Recorded results for 2 compounds are shown here.
- Molecular string: "CCc1ccc(Oc2ccc(S(=O)(=O)NCCO)cc2F)c(O)c1"
  Recorded metric: "pIC50"
  Measured: 5.92
- Molecular string: "CCCc1ccc(Oc2cccc(OC)c2)c(O)c1"
  Recorded metric: "pIC50"
  Measured: 5.51

Exam item: Consider the compound shown here: CCc1ccc(Oc2ccc(S(=O)(=O)CCC3OCCO3)cc2)c(O)c1 What is its recorded pIC50?
Marked response: 6.42

Exam item: Ok, now CCCNc1ccc(Oc2ccc(CC)cc2O)c(F)c1
Marked response: 6.07

Exam item: Ok, now Cc1ccc(Oc2cccc(F)n2)c(O)c1
Marked response: 5.46

* * *

Test name: Terminal elimination half life in Sprague-Dawley rat kidney at 2 x 50 mg/kg, iv
Assay type: ADME, organism-based
Set-up: dose 50 mg/kg, route intravenous
Condition notes: read-out: beta t1/2 (converted)
Recorded metric: half-life (min)
Write it as a number; the unit min goes unstated.

Exam item: Consider the compound shown here: CCc1cc(O)c(Oc2ccc(C(N)=O)cc2F)cc1F What is its recorded half-life?
Marked response: 510

* * *

Test name: Toxicity in iv dosed rat administered bid for 2 weeks
Type: organism-based
Condition notes: in vivo
Recorded metric: NOAEL at 336 h (mg/kg/day)
Write it as a number; the unit mg/kg/day goes unstated.

Exam item: Consider the molecule shown here: CCc1cc(O)c(Oc2ccc(C(N)=O)cc2F)cc1F What is its recorded NOAEL at 336 h?
Marked response: 200

* * *

# MIC annotations
Test system: Escherichia coli
Test name: Antibacterial activity against Escherichia coli C7 after 18 hrs by broth microdilution method
Type: functional
Condition notes: C7, 18 h
Write it as a number; the unit µg/mL goes unstated.

Recorded results for 2 compounds are shown here.
- Compound: "CCCc1ccc(Oc2ccc(OC)cc2)c(O)c1"
  System name: "Escherichia coli"
  MIC (µg/mL): 4
- Compound: "CCc1cc(O)c(Oc2ccccc2)cc1F"
  System name: "Escherichia coli"
  MIC (µg/mL): 1

Exam item: Consider the compound shown here: CCCc1ccc(Oc2cccc(F)n2)c(O)c1 What is its recorded MIC?
Marked response: 4

Exam item: Ok, now CCc1ccc(Oc2ccc(C(=O)CCCO)cc2)c(O)c1
Marked response: 4

Exam item: Ok, now CCc1ccc(Oc2ccc(S(=O)(=O)NCCc3ccccn3)cc2F)c(O)c1
Marked response: 16

Exam item: Ok, now CCc1ccc(Oc2cccc(F)n2)c(O)c1
Marked response: 4

Exam item: Ok, now CCc1cc(O)c(Oc2cccnc2N)cc1F
Marked response: 0.25

Exam item: Ok, now Oc1cc(Br)ccc1Oc1cccc(F)n1
Marked response: 1
